Hey, just so you know, these numbers are from patent US20090018163A1.

- SYSTEM: NK-1 (Homo sapiens)
- Construct: 30 ul/well of a 2×U373 membrane preparation; endogenous in cells; host or cells: U373 cells (crude membrane preparation)
- ASSAY TEXT: NK1 radioligand binding assay
- ASSAY CONTEXT: U373 membrane preparation, [125I]Substance P; Table 1a, single enantiomers
- Method: NK-1 Binding assay. Crude membrane suspensions were prepared for the NK1 and SERT radioligand binding assays from U373 cells or recombinant HEK-293 cells expressing hSERT, respectively. Cells were harvested from T-175 flasks as follows. The medium is removed from the flasks and the cells rinsed with HBSS without Ca and without Mg. […] NK1 radioligand binding assay. […] The plates are air-dried overnight, 12 ul/well of MicroScint scintillation fluid added, and the plates counted in a Trilux. […]
READOUT: IC50

Sample records with IC50:
[
  {
    "COMPOUND": "CC(OCC1(c2ccccc2)CCNCC1)c1cc(C(F)(F)F)cc2cccnc12 (single isomer, unassigned) [Example 71]",
    "IC50": "0.01 to 100 nM"
  },
  {
    "COMPOUND": "CC(OCC1(c2ccc(F)cc2)CCN(C)CC1)c1cc(C(F)(F)F)cc2cccnc12 (single isomer, unassigned) [Example 69]",
    "IC50": "> 300 nM"
  },
  {
    "COMPOUND": "Cc1cc(C(C)OCC2(c3ccc(F)cc3)CCN(C)CC2)c2ncccc2c1 (single isomer, unassigned) [Example 76]",
    "IC50": "0.01 to 100 nM"
  }
]

# next compound below
Input: Data request, read-out IC50, for CC(OCC1(c2ccc(F)cc2)CCNCC1)c1cc(C(F)(F)F)cc2cccnc12 (single isomer, unassigned) [Example 67]
Output: > 300 nM

====

- SYSTEM: hSERT (Homo sapiens, UniProt P31645)
- Construct: expressed in transfected cells; host or cells: HEK-293 cells (crude membrane preparation)
- Sequence (P31645 whole entry): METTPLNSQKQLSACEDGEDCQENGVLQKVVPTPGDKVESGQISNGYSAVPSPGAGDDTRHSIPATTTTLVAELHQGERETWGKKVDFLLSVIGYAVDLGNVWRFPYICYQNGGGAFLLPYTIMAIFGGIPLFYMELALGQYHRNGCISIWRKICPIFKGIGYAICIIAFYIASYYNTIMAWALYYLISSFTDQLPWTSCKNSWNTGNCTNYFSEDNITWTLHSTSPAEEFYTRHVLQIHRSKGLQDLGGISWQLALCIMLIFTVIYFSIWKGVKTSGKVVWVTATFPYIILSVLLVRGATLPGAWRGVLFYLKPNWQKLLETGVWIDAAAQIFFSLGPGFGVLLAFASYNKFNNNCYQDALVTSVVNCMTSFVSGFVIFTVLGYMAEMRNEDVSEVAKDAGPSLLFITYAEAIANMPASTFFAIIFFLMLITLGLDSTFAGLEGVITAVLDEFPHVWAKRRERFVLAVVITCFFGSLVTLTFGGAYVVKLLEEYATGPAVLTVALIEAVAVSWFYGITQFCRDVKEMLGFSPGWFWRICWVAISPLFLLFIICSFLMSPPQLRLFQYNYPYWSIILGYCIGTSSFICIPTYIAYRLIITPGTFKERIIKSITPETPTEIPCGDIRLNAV
- ASSAY TEXT: SERT radioligand binding assay
- ASSAY CONTEXT: read-out: SERT IC50; HEK-hSERT membrane preparation, [125I]RTI-55; Table 1a, single enantiomers
pIC50: −log10 of the molar value.
READOUT: pIC50

Input: // query pIC50 value for entry CC(OCC1(c2ccc(F)cc2)CCN(C)CC1)c1cc(C(F)(F)F)cc2cccnc12 (single isomer, unassigned)
Output: 7.00 to 11.00

====

- SYSTEM: NK-1 (Homo sapiens, UniProt P25103)
- Construct: 30 ul/well of a 2×U373 membrane preparation; endogenous in cells; host or cells: U373 cells (crude membrane preparation)
- Sequence (P25103 whole entry): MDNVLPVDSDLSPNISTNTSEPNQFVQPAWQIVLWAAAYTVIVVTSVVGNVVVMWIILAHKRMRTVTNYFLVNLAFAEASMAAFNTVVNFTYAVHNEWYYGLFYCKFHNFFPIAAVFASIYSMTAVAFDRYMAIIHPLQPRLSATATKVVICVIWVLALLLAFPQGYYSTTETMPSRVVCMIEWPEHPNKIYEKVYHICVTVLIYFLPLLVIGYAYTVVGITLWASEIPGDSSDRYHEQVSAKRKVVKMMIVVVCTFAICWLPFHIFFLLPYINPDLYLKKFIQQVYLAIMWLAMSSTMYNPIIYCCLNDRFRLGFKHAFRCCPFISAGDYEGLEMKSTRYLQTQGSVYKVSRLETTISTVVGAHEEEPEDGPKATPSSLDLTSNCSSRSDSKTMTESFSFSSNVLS
- ASSAY TEXT: NK1 radioligand binding assay
- ASSAY CONTEXT: U373 membrane preparation, [125I]Substance P; Table 1a, single enantiomers
pIC50: −log10 of the molar value.
READOUT: pIC50

Here is how some molecules turned out for pIC50.
[
  {
    "MOLECULE": "CC(OCC1(c2ccc(F)cc2)CCNCC1)c1cc(Br)cc2cccnc12 (single isomer, unassigned) [Example 77]",
    "READOUT": "pIC50",
    "MEASURED RESULT": "7.00 to 11.00"
  },
  {
    "MOLECULE": "CC(OCC1(c2ccc(F)cc2)CCN(C)CC1)c1cc(Br)cc2cccnc12 (single isomer, unassigned) [Example 78]",
    "READOUT": "pIC50",
    "MEASURED RESULT": "6.52 to 7.00"
  }
]

Input: Which pIC50 is listed for CC(OCC1(c2ccc(F)cc2)CCN(C)CC1)c1cc(C(F)(F)F)cc2cccnc12 (single isomer, unassigned) [Example 70] ?
Output: 7.00 to 11.00

Input: Looking for the measured pIC50 of CC(OCC1(c2ccc(F)cc2)CCNCC1)c1cc(C(F)(F)F)cc2cccnc12 (single isomer, unassigned) [Example 68] , can you help?
Output: 7.00 to 11.00

Input: So what's the measured pIC50 for this one? CC(OCC1(c2ccccc2)CCN(C)CC1)c1cc(C(F)(F)F)cc2cccnc12 (single isomer, unassigned) [Example 73]
Output: 7.00 to 11.00

Input: Quick one: pIC50 of Cc1cc(C(C)OCC2(c3ccc(F)cc3)CCN(C)CC2)c2ncccc2c1 (single isomer, unassigned) [Example 75] ?
Output: < 6.52
